Assayed target: Mtb AccD6 (Mycobacterium tuberculosis, UniProt P9WQH5)
Sequence (P9WQH5 whole entry, looked up): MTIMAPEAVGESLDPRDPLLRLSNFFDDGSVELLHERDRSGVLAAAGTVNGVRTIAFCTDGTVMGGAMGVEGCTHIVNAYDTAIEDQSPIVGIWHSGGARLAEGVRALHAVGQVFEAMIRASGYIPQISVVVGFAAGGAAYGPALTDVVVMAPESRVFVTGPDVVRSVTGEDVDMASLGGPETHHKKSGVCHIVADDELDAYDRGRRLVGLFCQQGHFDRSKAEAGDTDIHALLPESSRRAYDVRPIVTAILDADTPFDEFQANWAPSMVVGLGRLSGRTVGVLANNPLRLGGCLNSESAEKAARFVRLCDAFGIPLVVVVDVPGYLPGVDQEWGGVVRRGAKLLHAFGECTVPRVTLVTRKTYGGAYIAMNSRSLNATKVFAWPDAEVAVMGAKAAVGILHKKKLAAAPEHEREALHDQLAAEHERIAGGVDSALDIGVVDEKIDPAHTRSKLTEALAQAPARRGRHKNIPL
Assay summary: biochemical
Format: biochemical
Experimental conditions: 300 μM malonyl-CoA, inhibitor 10 μM to 2000 μM; read-out: IC50
Recorded metric: pIC50
Give bare numbers, as −log10 of the molar value.

- Compound: "CC(C(=O)N1CCOCC1)c1ccc(Oc2nc3ccc(Cl)cc3s2)cc1 (centres unmarked)"
  Observed measurement: 5.21
- Compound: "CN(C)C(=O)Nc1ccc(Oc2cnc3cc(Cl)ccc3n2)cc1"
  Observed measurement: 6.40

Now examine the next entry.
I have this compound here, CC(C)NC(=O)Nc1ccc(Oc2nc3cc(Cl)c(Cl)cc3s2)cc1 , and I need its recorded pIC50.
5.29
